target: His-ZZ-DYRK1B kinase domain (DYRK1B protein) (Homo sapiens, UniProt Q9Y463); details: read-out: DYRK1B Transient heating; inhibitor
pIC50: −log10 of the molar value.
Please enter y where pIC50 is greater than or equal to 5, and n where it is lower.

Task item: Is pIC50 at least 5? Consider CCOc1cc(/C=C2\SC(=S)NC2=O)ccc1O [compound 5, RD0392]
Reply: y

Task item: Assess whether reported pIC50 for COc1ccc(/C=C2\SC(=S)NC2=O)cc1 [compound 13, RD1486] sits at 5 or higher.
Reply: n

Task item: In plain terms: is recorded pIC50 at least 5 for C#Cc1cc(/C=C2\SC(=S)NC2=O)ccc1O [compound 12, RD0562] ?
Reply: n

Task item: Please indicate if the recorded pIC50 for COc1ccc(/C=C2\NC(=S)NC2=O)cc1C#C[Si](C)(c1ccccc1)c1ccccc1 [compound 4, RD1408] meets or exceeds 5.
Reply: n

Task item: Is it the case that COc1ccc(/C=C2\SC(=S)NC2=O)cc1C#C[Si](C)(c1ccccc1)c1ccccc1 [compound 2, dp-FINDY] has pIC50 reaching or exceeding 5?
Reply: y
